biological target: UniProt P43405
Recorded IC50 values for a group of compounds are listed next.

{"structure.smiles.string": "COc1cc(Nc2nccc(Oc3ccc(NC(=O)Nc4cc(C(C)C)nn4-c4ccc(C)cc4)c4ccccc34)n2)cc(OCCN2CCOCC2)c1", "value.comparator": ">", "IC50 / nM": 537}
{"structure.smiles.string": "COc1cc(Nc2nccc(Oc3ccc(NC(=O)Nc4cc(C(C)(C)C)nn4-c4ccc(C)cc4)c4ccccc34)n2)cc(SCCO)c1", "value.comparator": "=", "IC50 / nM": 42}
{"structure.smiles.string": "COc1ccc(-n2nc(C(C)(C)C)cc2NC(=O)Nc2ccc(Oc3ccnc(Nc4cccc(N=S(C)(C)=O)c4)n3)c3ccccc23)cn1", "value.comparator": "=", "IC50 / nM": 15}
{"structure.smiles.string": "COCCOCCOCCOc1cc(Nc2nccc(Oc3ccc(NC(=O)Nc4cc(C(C)(C)C)nn4-c4ccc(C)cc4)c4ccccc34)n2)cc(OC)c1Cl", "value.comparator": "=", "IC50 / nM": 75}
{"structure.smiles.string": "COc1cc(Nc2nccc(Oc3ccc(NC(=O)Nc4cc(C(C)(C)C)nn4-c4ccc(C)cc4)c4ccccc34)n2)cc(OCCN2CCOCC2)c1", "value.comparator": "=", "IC50 / nM": 15}
{"structure.smiles.string": "COc1cc(Nc2nccc(Oc3ccc(NC(=O)Nc4cc(C(C)(C)C)nn4-c4ccc(C)cc4)c4ccccc34)n2)cc(OCCOCCOCCN(C)C)c1", "value.comparator": "=", "IC50 / nM": 8}
